- Tested on: morningglory (Ipomoea coccinea)
- Protocol Details: Test C greenhouse herbicide test, pre- and postemergence
- Format: in vivo
- Protocol Conditions: Postemergence, 31 g ai/ha; 0 to 100 scale (0 no effect, 100 complete control)
Quantity Measured: Morningglory plant response rating
Give bare numbers.

CCOC(=O)Oc1c(C)nn(C)c(=O)c1-c1c(C)ccc2ccccc12 : 75
Cc1ccc2sc(C)c(-c3c(O)c(C)nn(C)c3=O)c2c1 : 100
CC(=O)Oc1c(C)nn(C)c(=O)c1-c1c(C)sc2ccc(C)cc12 : 100

Take each entry in turn and give its Morningglory plant response rating.
1. CCOC(=O)Oc1c(C)nn(C)c(=O)c1-c1c(CC)ccc2ccccc12
2. CCC(=O)Oc1c(C)nn(C)c(=O)c1-c1c(C)sc2c(C)cc(C)cc12

[90, 95]
